test system: OVCAR-4 ovarian; assay: NCI-60 one-dose screen, 48 h (100 = growth as untreated, 0 = no growth, -100 = all killed); settings: 10 µM unless noted
This is part of a sample that, as a whole, favours compounds with a hit. Of some 83,000 tested, about 20% had one in any assay.
Mark each entry fulfilled if its growth sits below 50%, and not fulfilled for all others.

Answered examples (5):
Q) Dear reviewer, please state whether Clc1ccc(N2COOC3(OOC2)C2CC4CC(C2)CC3C4)cc1 has growth strictly beneath 50%.
A) not fulfilled

Q) Dear reviewer, please state whether O=C(c1cccc(O)c1O)c1cn(Cc2ccc(F)cc2)c2cccc(O)c12 has growth strictly beneath 50%.
A) fulfilled

Q) Dear reviewer, please state whether O=C(CN1CCN(C(=O)c2ccco2)CC1)Nc1ccc(Cl)cc1C(=O)c1ccccc1Cl has growth strictly beneath 50%.
A) not fulfilled

Q) Dear reviewer, please state whether O=C(Nc1ccc([As]=[As]c2ccc(NC(=O)c3ccccc3)cc2)cc1)c1ccccc1 (configuration not stated) has growth strictly beneath 50%.
A) fulfilled

Q) Dear reviewer, please state whether CCCCCCCCCCCCCCCCCC1OC[C@@H](COC(=O)O[C@@H](C(=O)O[C@H]2C[C@@]3(O)[C@@H](OC(=O)c4ccccc4)[C@@H]4[C@]5(OC(C)=O)CO[C@@H]5C[C@H](O)[C@@]4(C)C(=O)[C@H](OC(C)=O)C(=C2C)C3(C)C)[C@@H](NC(=O)c2ccccc2)c2ccccc2)O1 (some centres not stated) has growth strictly beneath 50%.
A) not fulfilled

With those in mind, consider the next molecule.
Q) Dear reviewer, please state whether c1cc2c(c3c1CCNC3)OCO2 has growth strictly beneath 50%.
A) not fulfilled

###

system: SF-539 CNS; test: NCI-60 one-dose screen, 48 h (100 = growth as untreated, 0 = no growth, -100 = all killed); conditions: 10 µM unless noted
This is part of a sample that, as a whole, favours compounds with a hit. Of some 83,000 tested, about 20% had one in any assay.
The following compounds are shown together with reported growth values.
The response must be a number in % with no trailing unit.

Q) Give reported growth for O=C([O][Hg][c]1ccccc1)c1ccccc1 (SF-539 CNS)
A) 19.4

The record that follows has no growth shown yet.
Q) Give reported growth for CC(=O)[C@H]1CC[C@H]2[C@@H]3CC[C@H]4C[C@H](N)CC[C@]4(C)[C@H]3CC[C@]12C (SF-539 CNS)
A) 84.6

###

The following compounds are shown together with reported growth values.
Test system: OVCAR-4 ovarian
Assay: NCI-60 one-dose screen, 48 h (100 = growth as untreated, 0 = no growth, -100 = all killed)
Details: 10 µM unless noted
Method: Growth inhibition of the OVCAR-4 human tumor cell line is measured as a screen for anti-cancer activity. Cells are grown in 96 well plates and exposed to the test compound for 48 hours. Compounds are tested at a single concentration, which is 10^-5 M for most compounds. The reported endpoint is percent growth (GI% or GIPRCNT), where numbers from 0 - 100% represent growth inhibition, and numbers from -100% - 0 represent cell death. For example, a value of 40 represents 60% growth inhibition. […]
About 83,000 compounds went through this panel and 20% of them were active in at least one assay; those are over-represented in the sample as a whole.
The response must be a number in % with no trailing unit.

Q) Annotate the compound Nc1ccc2c(c1)Cc1cc(Br)ccc1-2 with its measured growth.
A) 99.9

Q) Annotate the compound O=C(O)c1c(Cl)n(Cc2ccc(O)cc2)c2ccc(O)cc12 with its measured growth.
A) 104

Q) Annotate the compound Nc1ccc(Cl)cc1 with its measured growth.
A) 106

Q) Annotate the compound C[S+]1C=Cc2ccccc2C1c1ccc(Cl)cc1 (centres undefined) with its measured growth.
A) 66.5

Q) Annotate the compound O=C1N[C@@H]2[C@@H](O)[C@@H](O)[C@H](O)C[C@H]2c2cc3c(c(O)c21)OCO3 with its measured growth.
A) -23.7

Next:
Q) Annotate the compound COc1cc(C=Nc2cccc(Br)c2)ccc1N(CCCl)CCCl with its measured growth.
A) 93.6

Q) Annotate the compound O=P(Oc1ccc(Cl)cc1)(N1CC1)N1CC1 with its measured growth.
A) 97.3

Q) Annotate the compound CO[C@H](C(=O)O)[C@@H]1Cc2cc3cc(OC4CC(OC5CC(O)C(O)C(C)O5)C(O)C(C)O4)c(C)c(O)c3c(O)c2C(=O)[C@H]1OC1CC(OC2CC(OC3CC(C)(O)C(O)C(C)O3)C(O)C(C)O2)C(O)C(C)O1 (some centres undefined) with its measured growth.
A) 19.7

Q) Annotate the compound C=CC1=C[C@@H]2[C@@H]3O[C@]4(CC[C@H](O4)[C@@H](C)C[C@@H](O)C3=O)C[C@H](O)C3=NCC[C@@]32CC1 with its measured growth.
A) -38.8
